Experiment: NCI Yeast Anticancer Drug Screen. Data for the wt1 strain (AID 149);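 further: 0% = growth of vehicle-treated wt1 cultures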
Conditions: S. cerevisiae wt1 strain (SPY 50644) growth inhibition; at 100.0 µM; stronger effect = higher value
The panel holds about 79,000 compounds, 15% with a hit somewhere; the sample as a whole holds those more often.
growth inhibition: recorded values
MEASUREMENT_TYPE: growth inhibition (%)

| LINE_NOTATION | MEASUREMENT_TYPE | ENDPOINT_UNIT | QUANTITATIVE_RESULT |
| --- | --- | --- | --- |
| O=C1C=CC(=O)N1c1ccc2c(c1)OCO2 | growth inhibition | % | 100 |
| O=C(/C=C/c1cccc2ccccc12)c1ccc(Cl)cc1 | growth inhibition | % | -45 |
| CCC(=O)Oc1ccc(/C=N/NC(N)=S)nc1 | growth inhibition | % | 19 |
| O=C(NC(=S)Nc1ccccn1)c1ccccc1 | growth inhibition | % | -24 |
| Oc1ccc(C=Nc2ccccc2O)cc1 | growth inhibition | % | 39 |
| NNC(=S)Nc1cccc2ccccc12 | growth inhibition | % | 7 |
| OB(O)c1ccccc1C#Cc1ccccc1B(O)O | growth inhibition | % | 59 |

---

Assay: NCI Yeast Anticancer Drug Screen. Data for the rad50EPP+ strain (AID 151);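 further: 0% = growth of vehicle-treated control cultures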
Settings: S. cerevisiae rad50 mutant strain, at 1.2 µM, stronger effect = higher value
About 79,000 compounds went through this panel and 15% of them were active in at least one assay; those are over-represented in the sample as a whole.
growth inhibition: recorded values

| LINE_NOTATION | growth inhibition (%) |
| --- | --- |
| Cc1cccc2c1N=C(C(F)(F)F)CC2=O | 2 |
| CC(=O)N1C(=O)/C(=C\C(=O)c2ccc([N+](=O)[O-])cc2)c2ccccc21 | -12 |
| O=C1C=CC(=O)N1c1ccc(N2C(=O)C=CC2=O)cc1 | 3 |
| COC(=O)c1oc([N+](=O)[O-])c(Cl)c1Cl | 95 |
| c1ccc2c(c1)Cn1c-2nc2ccccc21 | 2 |
| O=C(O)c1cccc2cccc(-c3c4ccc(=O)cc-4oc4cc(O)ccc34)c12 | 10 |
| C(=N/NC1=NCCN1)/c1c2ccccc2c(/C=N\NC2=NCCN2)c2ccccc12 | 6 |
| O=C1c2c(O)cccc2-c2nn(CCNCCO)c3ccc(NCCNCCO)c1c23 | 15 |
| O=c1ccc(N=Nc2ccccc2)ccc1O | -8 |
| O=C1C=CC(=O)N1c1ccc2c(c1)OCO2 | 9 |
| CC(=O)N1C(=O)/C(=C\C(=O)c2ccc(Cl)cc2)c2ccccc21 | -2 |

---

Experiment: NCI Yeast Anticancer Drug Screen. Data for the CLN2oe strain (AID 163);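 further: 0% = growth of vehicle-only control cultures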
Settings: S. cerevisiae CLN2oe strain, at 33.0 µM
This is part of a sample that, as a whole, favours compounds with a hit. Of some 79,000 tested, about 15% had one in any assay. Activity calls are given as the source filed them. No stated cut-off is given here; in the data, active means growth inhibition above about 70%; inactive means the rest.
Labels: label 1 (active), label 0 (inactive)

| COMPOUND | ASSIGNED_CATEGORY |
| --- | --- |
| COc1ccc(/C=C(\NC(=O)c2ccccc2)C(=O)NN(C)c2ccnc3cc(Cl)ccc23)cc1OC | label 0 |
| O=C(O)c1ccccc1.[Ag] | label 1 |
| CCC(c1ccc(O)cc1)C(CC)c1ccc(OCCN)cc1 (stereo not drawn) | label 0 |
| COc1cccc(C(c2cc3c(cc2O)OCO3)N2CCOCC2)c1OC (stereo not drawn) | label 0 |
| C=C1N(C)c2ccc(Cl)cc2C1(C)C | label 0 |
| CC(=O)N1C(=O)/C(=C\C(=O)c2ccc(Cl)cc2)c2ccccc21 | label 0 |
| Cc1ccc2occ/c(=N\Nc3ccccc3)c2c1 | label 0 |
| N#CC(=C1C=CC(=NO)C=C1)c1ccccc1 | label 1 |
| Cc1cc(OCc2ccccc2)ccc1[N+](=O)[O-] | label 0 |
| Clc1cc(-c2ccccc2)nc2ccccc12 | label 0 |
| O=Nn1c2ccccc2c2ccccc21 | label 0 |
| c1ccc2c(c1)Cn1c-2nc2ccccc21 | label 0 |
| S=c1nc(Cl)cc2[nH]c(Cl)cn12 | label 0 |

This collection of values is drawn from PubChem BioAssay (NCI).
